Cited source for all entries: patent US20110123544A1

Item-by-item account of koff
Study system: T1, recombinant human IL-12 (rhIL-12) (human, UniProt P29459 23-219; P29460 23-328)
T1 chain 1: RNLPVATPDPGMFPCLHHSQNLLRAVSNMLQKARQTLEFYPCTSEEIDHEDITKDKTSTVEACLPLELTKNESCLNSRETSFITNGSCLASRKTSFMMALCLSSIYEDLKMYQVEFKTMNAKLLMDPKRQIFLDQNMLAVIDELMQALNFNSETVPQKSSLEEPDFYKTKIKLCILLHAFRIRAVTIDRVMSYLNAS
T1 chain 2: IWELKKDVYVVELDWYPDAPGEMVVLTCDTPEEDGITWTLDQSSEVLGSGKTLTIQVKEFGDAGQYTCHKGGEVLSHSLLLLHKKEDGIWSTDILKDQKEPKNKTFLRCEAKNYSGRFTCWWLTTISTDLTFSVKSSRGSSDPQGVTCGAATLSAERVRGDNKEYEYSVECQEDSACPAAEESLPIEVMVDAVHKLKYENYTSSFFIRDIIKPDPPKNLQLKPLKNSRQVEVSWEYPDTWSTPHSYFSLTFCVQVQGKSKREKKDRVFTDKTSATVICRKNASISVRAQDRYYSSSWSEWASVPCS
Experiment notes: BIAcore
Report only the number, with the unit s⁻¹ understood.

> print(dat)
                      binder  observed.value
1  SGGRSNIGSNAVK [Y61 L32 A]         0.00191

Find the recorded koff belonging to SGGRSNIGSSTVK [Y61 L31 S] and report it.
0.000392

Any idea what its koff is? The binder is SGGRSNIGSNYVK [Y61 L32 Y]
0.000213

Requested read-out: koff. Entry: SGGRSNIGSYTVK [Y61 L31 Y]
0.000357

Item SGGRSNIGSNSVK [Y61 L32 S] has what recorded koff?
0.00191

# input binder: SGGRSNIGSGTVK [Y61 L31 G] ; wanted: its koff
0.000366
